Molecular target: EGFR L858R (BaF3-L858R cells) (Homo sapiens, UniProt P00533, L858R)
Construct: host or cells: BaF3
Sequence (P00533 25-1210 L858R): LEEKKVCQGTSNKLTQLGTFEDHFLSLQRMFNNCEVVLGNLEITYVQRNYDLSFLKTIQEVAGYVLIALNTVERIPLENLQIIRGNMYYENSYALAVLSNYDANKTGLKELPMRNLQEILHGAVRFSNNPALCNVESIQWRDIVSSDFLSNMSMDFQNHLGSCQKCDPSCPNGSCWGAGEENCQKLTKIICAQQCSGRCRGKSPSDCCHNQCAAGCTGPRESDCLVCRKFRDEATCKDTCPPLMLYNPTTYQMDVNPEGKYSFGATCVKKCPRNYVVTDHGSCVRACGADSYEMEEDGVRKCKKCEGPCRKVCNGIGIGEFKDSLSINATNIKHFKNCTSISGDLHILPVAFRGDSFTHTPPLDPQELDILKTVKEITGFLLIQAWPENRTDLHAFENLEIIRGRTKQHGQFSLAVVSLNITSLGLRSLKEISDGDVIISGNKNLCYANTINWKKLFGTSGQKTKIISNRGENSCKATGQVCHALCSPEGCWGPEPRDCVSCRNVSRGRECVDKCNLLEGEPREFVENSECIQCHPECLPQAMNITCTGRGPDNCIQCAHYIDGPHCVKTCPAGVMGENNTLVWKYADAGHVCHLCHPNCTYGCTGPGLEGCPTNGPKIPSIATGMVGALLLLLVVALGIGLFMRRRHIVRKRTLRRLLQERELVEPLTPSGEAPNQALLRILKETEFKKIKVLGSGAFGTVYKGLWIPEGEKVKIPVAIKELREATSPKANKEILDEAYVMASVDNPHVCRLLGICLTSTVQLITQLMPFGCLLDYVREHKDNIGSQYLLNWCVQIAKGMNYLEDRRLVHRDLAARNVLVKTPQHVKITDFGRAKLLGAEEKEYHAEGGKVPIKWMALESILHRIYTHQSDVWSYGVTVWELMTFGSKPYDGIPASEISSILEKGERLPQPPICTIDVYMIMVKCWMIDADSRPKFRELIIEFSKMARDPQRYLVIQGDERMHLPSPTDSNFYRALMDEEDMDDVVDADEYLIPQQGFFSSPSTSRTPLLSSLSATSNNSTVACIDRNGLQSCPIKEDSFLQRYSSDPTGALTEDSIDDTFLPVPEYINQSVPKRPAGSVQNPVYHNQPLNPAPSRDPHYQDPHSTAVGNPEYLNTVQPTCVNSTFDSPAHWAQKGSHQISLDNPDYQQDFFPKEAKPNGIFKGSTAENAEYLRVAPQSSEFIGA
Assay: Cell degradation of EGFR, HTRF assay, BaF3-L858R cells
Type: cell-based
Conditions: 16 h treatment, EGFR degradation
reported.metric: DC50 (nM)
Your answer should be a plain number; it is taken to be in nM.

Known DC50 results, listed for orientation:
# compound, recorded.value
records = [
    ("COC[C@@H]1CN(c2ccc3c(c2)N2C[C@@H]4CC[C@H](COc5c(cnn5C)-c5cc(cc(C)n5)C(=O)/N=C/2N3)C4)CCN1CC1CN(c2ccc3c(c2)CN(C2CCC(=O)NC2=O)C3=O)C1 (stereo partly drawn)", 0.55),
    ("Cc1nn(C)c2c1-c1cc(cc(Cl)n1)C(=O)/N=C1\\Nc3ccc(N4CCN(C5CCN(c6cc(F)c([C@H]7CCC(=O)NC7=O)c(F)c6)CC5)CC4)cc3N1C[C@@H]1CC[C@H](CO2)C1", 5.38),
]

Please find the next compound below.
Exercise: State the recorded DC50 for this entry: `COC[C@@H]1CN(c2cc3c(cc2C)N/C2=N\C(=O)c4cc(C)nc(c4)-c4cnn(C)c4OC[C@H]4CC[C@H](C4)CN23)CCN1C1CCN(c2cc(F)c([C@H]3CCC(=O)NC3=O)c(F)c2)CC1`
Key: 3.41
